meta.source: patent US20220289857A1

As shown below, each of these binders has a reported pKd value.
# subject of test: T1, His-SUMO-huFn14 (soluble human Fn14 aa 28-75 with N-terminal 6xHis-SUMO tag) (human)
# T1 construct: also called His-SUMO-Fn14; His-SUMO-hFn14
# method: SPR single-cycle kinetics; mAb captured by anti-human Fc, His-Sumo-Fn14 analyte; average of three runs
pKd: −log10 of the molar value.

binder: A553/A472 humanized IgG4 Nullbody, kappa antibody (antibody, V domains shown, also called hzR35B9(A56)-HV7c / hzR35B9-LV4) VH: QVQLVQSGAEVKKPGASVKVSCKASGYIFQDYNMHWVKQAPGQGLEWIGSINPRNAWTNYNQKFKGKATITADTSTSTAYMELSSLRSEDTAVYYCASSGWFTYWGQGTLVTVSS VL: DVVMTQSPLSLPVTIGQPASISCKSSQSLLNSAGKTYLNWLLQRPGQSPKRLIYLVSQLDSGVPDRFSGSGSGTDFTLKISRVEAEDVGVYYCWQGTFYPWTFGGGTKVEIKR
pKd: 9.45

binder: A512/A468 humanized IgG4 Nullbody, kappa antibody (antibody, V domains shown, Human IgG4null constant (S228P, L235E, R409K); also called hzR35B9(A56)-HV11 / hzR35B9-LV1a) VH: QVQLVQSGPEVVKPGASVKVSCKASGYIFQDYNMHWVRQAHGQSLEWMGSINPRNAWTNYNQKFKGRATITVDKSTRTAYMELSSLRSEDTAVYYCASSGWFTYWGQGTLVTVSS VL: DVVMTQSPLSLPVTLGQPASISCKSSQSLLNSAGKTYLNWLQQRPGQSPRRLIYLVSQLDSGVPDRFSGSGSGTDFTLKISRVEAEDVGVYYCWQGTFYPWTFGGGTKVEIKR
pKd: 9.69

binder: A648/A468 humanized IgG4 Nullbody, kappa antibody (antibody, V domains shown) VH: QVQLQQSGPEVVKPGASVKVSCKASGYIFQDYNMHWVKQAHGQSLEWMGSINPRNAWTNYNDKFKGKATLTVDKSTRTAYMELSSLRSEDTAVYYCASSGWFTYWGQGTLVTVSS VL: DVVMTQSPLSLPVTLGQPASISCKSSQSLLNSAGKTYLNWLQQRPGQSPRRLIYLVSQLDSGVPDRFSGSGSGTDFTLKISRVEAEDVGVYYCWQGTFYPWTFGGGTKVEIKR
pKd: 9.65

binder: A515/A518 humanized IgG4 Nullbody, kappa antibody (antibody, V domains shown, also called hzR35B9(Y50A56G57)-HV7b / hzR35B9(H98)-LV1a) VH: QVQLVQSGAEVVKPGASVKVSCKASGYIFQDYNMHWVRQAHGQGLEWMGYINPRNAGTNYNQKFKGRVTITADKSTRTAYMELSSLRSEDTAVYYCASSGWFTYWGQGTLVTVSS VL: DVVMTQSPLSLPVTLGQPASISCKSSQSLLNSAGKTYLNWLQQRPGQSPRRLIYLVSQLDSGVPDRFSGSGSGTDFTLKISRVEAEDVGVYYCWQGTHYPWTFGGGTKVEIKR
pKd: 9.33
